Where do the numbers come from? From ChEMBL document CHEMBL1201862.

System: EKVX
Test: NCI tumour cell line growth inhibition, 48 h
Active and inactive are the calls of the source. No stated cut-off is given here; in the data, active = GI50 up to about 1.1 µM and inactive = higher.
experimental.endpoint: GI50

// known answers, use as guide
molecule	target.under.test	experimental.endpoint	observed.result
CC1(C)OC2C(=O)OC(COCc3ccccc3)C2O1 (stereo unspecified)	EKVX	GI50	> 100 µM (inactive)
COC(=O)CCSC(=O)Nc1ccc(/N=N/c2ccccc2)cc1	EKVX	GI50	39.5 µM (inactive)

Here is another molecule to look at.
### Prompt Which GI50 value belongs to CCNc1cnc2c(n1)c(=O)n(C)c(=O)n2C ?
### Response 34.1 µM (inactive)

###

Tested on: K562
Test: NCI tumour cell line growth inhibition, 48 h
Calls of active or inactive are those of the source. No stated cut-off is given here; in the data, active = GI50 up to about 1.1 µM and inactive = higher.
Collected GI50 values appear next to each entry.

molecule	observed.result
Cc1nc(N(C(C)C)C(C)C)c(C(C)C)o1	> 100 µM (inactive)
COc1cc(O)c2c(c1)C(=O)c1cc(C)cc(O)c1C2=O	> 100 µM (inactive)
CC(=O)NC1C(OCC(=O)NCCNc2ccc([N+](=O)[O-])c3[nH]c4ccccc4c(=O)c23)C(O)C(CO)OC1(C)OCc1ccccc1 (stereo unspecified)	> 100 µM (inactive)
O=C(/N=C1/OC(CN2CCOCC2)CN1C(=O)Nc1ccccc1)Nc1ccccc1 (stereo unspecified)	> 100 µM (inactive)
OC1[C@H](O)CN(OCc2ccccc2)C[C@@H]1O (stereo partly specified)	> 100 µM (inactive)
O=c1/c(=C/c2ccccc2O)sc2nc3ccccc3n12	33.6 µM (inactive)

Here is another molecule to look at.
### Prompt Which GI50 value belongs to O[C@@]1(c2cccs2)c2cccc(Cl)c2[C@](O)(c2cccs2)c2cccc(Cl)c21 ?
### Response 25.5 µM (inactive)

###

Test system: UACC-62
Assay: NCI tumour cell line growth inhibition, 48 h
Calls of active or inactive are those of the source. Rule as the data show it: active = GI50 up to about 1.1 µM and inactive = higher.
Collected GI50 values appear next to each entry.

compound	target.under.test	experimental.endpoint	observed.result
CC(C)Sc1nc(C#N)cc2c1CCCC2	UACC-62	GI50	91.8 µM (inactive)
COC(=O)C1=NN2c3ccccc3CN([C@@H](C)c3ccccc3)C(=O)[C@@H]2[C@H]1c1ccccc1	UACC-62	GI50	> 100 µM (inactive)
Cc1cc(N(CCC#N)CCC#N)ccc1/C=C1/CN(N2C(=O)/C(=C/c3ccc(N(CCC#N)CCC#N)cc3C)N=C2c2ccccc2)C(c2ccccc2)=N1	UACC-62	GI50	> 100 µM (inactive)
COC1=C2CC(C)CC(OC)C(O)C(C)/C=C(\C)C(OC(N)=O)C(OC)/C=C\C=C(/C)C(=O)NC(=C(/C=N/C(C)(C)C)C1=O)C2=O (stereo not drawn)	UACC-62	GI50	5.38 µM (inactive)
COc1cc2c(cc1OC)-c1cc3ccccc3c[n+]1CC2	UACC-62	GI50	> 100 µM (inactive)
CC(C)(C)OC(=O)n1c(Cl)c(C=O)c2ccccc21	UACC-62	GI50	19.3 µM (inactive)

### Prompt Which GI50 value belongs to C[C@@H]1CC[C@@]2(NC1)O[C@H]1C[C@H]3[C@@H]4CC[C@H]5C[C@@H](O)CC[C@]5(C)[C@H]4CC[C@]3(C)[C@H]1[C@@H]2C ?
### Response 57.3 µM (inactive)

### Prompt Which GI50 value belongs to CC1(C)OC2OC(COC(=O)c3ccc(C#N)cc3)C3OC(C)(C)OC3C2O1 (stereo not drawn) ?
### Response > 75 µM (inactive)
